Every entry's value here was drawn from the supplement of paper PMC6522484.

Readings of TCF/Wnt firefly luciferase reporter signal for the listed compounds
# Test system: DLD1
# method.description: TCF/Wnt firefly luciferase reporter signal relative to plate median (fraction of plate median); higher = higher Wnt reporter signal
# details: 5 µM; treatment time 24 h; reporter: 7TFP
Answer with the value's number alone.

Worked set:
compound=CCOC(=O)c1c(C)cc(O)cc1O result_value=1.06
compound=O=c1c2ccccc2oc2ccccc12 result_value=0.985

query: State its TCF/Wnt firefly luciferase reporter signal for this compound: C=CCCCCCCCCCCCC(O)CC(O)CO (stereo unspecified)
result: 0.964

query: State its TCF/Wnt firefly luciferase reporter signal for this compound: C/N=C(/NC#N)NCCSCc1csc(NC(=N)N)n1
result: 1.12

* * *

Readings of cell viability for the listed molecules
# Test system: DLD1
# method.description: cell viability (CellTiter-Glo) relative to plate median (fraction of plate median); higher = more viable cells
# details: 5 µM; treatment time 24 h; reporter: 7TFP
Answer with the value's number alone.

molecule=O=C(O)c1nc2cc(Cl)c(Cl)cc2nc1O measure_name="cell viability" result_value=0.95
molecule="CC1=C2C(O)C(=O)OC3CC4C(C)(C)C(=O)C=C[C@]4(C)C(CC1)[C@]23C (stereo not given in full)" measure_name="cell viability" result_value=0.931
molecule=CCCCCCCCCCC[C@@H](C[C@@H]1OC(=O)[C@H]1CCCCCC)OC(=O)[C@H](CC(C)C)NC=O measure_name="cell viability" result_value=0.83
molecule=O=C(O)CCCN1C(=O)c2cccc3cccc(c23)C1=O measure_name="cell viability" result_value=0.994
molecule=O=C(CCCN1CCC(O)(c2ccc(Cl)cc2)CC1)c1ccc(F)cc1 measure_name="cell viability" result_value=1

query: Would you please give the reported cell viability of CC1(C)O[C@@H]2[C@@H](CO[C@@]3(COS(N)(=O)=O)OC(C)(C)O[C@@H]23)O1 with DLD1?
result: 0.925

* * *

Readings of cell viability for the listed compounds
# System: HCT116
# method.description: cell viability (CellTiter-Glo) relative to plate median (fraction of plate median); higher = more viable cells
# details: 5 µM; treatment time 24 h; reporter: TCF4/Wnt
Answer with the value's number alone.

Worked set:
compound=CCCCC(=O)N(Cc1ccc(-c2ccccc2-c2nnn[nH]2)cc1)[C@H](C(=O)O)C(C)C result_value=0.988
compound=COc1ccc2c(c1)[C@@]1(C)CC[C@@H](O)C[C@@H]1CC2 result_value=1.1
compound=Oc1ccc([C@H]2Oc3cc(O)cc(O)c3C[C@H]2O)cc1 result_value=1.01

// moving on: another record for cell viability
query: State its cell viability for this compound: CCN(CC)CCNc1ccc(CO)c2sc3ccccc3c(=O)c12
result: 1.02

* * *

# Test system: DLD1
# method.description: cell viability (CellTiter-Glo) relative to plate median (fraction of plate median); higher = more viable cells
# details: 5 µM; treatment time 24 h; reporter: 7TFP
measure.name: cell viability
Answer with the value's number alone.

Worked set:
compound=CC(=O)O[C@H]1CC[C@]2(C)C3=C(CC[C@H]2C1(C)C)[C@]1(C)CC[C@H]([C@H](C)CCC=C(C)C)[C@@]1(C)CC3 result_value=0.966
compound=O=C(O)c1c[nH]c2ccccc12 result_value=0.977
compound=CN[C@H](CC(=O)O)C(=O)O result_value=0.99
compound=NC(=O)C(c1ccccc1)(c1ccccc1)[C@@H]1CCN(CCc2ccc3c(c2)CCO3)C1 result_value=0.873
compound=Cc1ncc([N+](=O)[O-])n1CCO result_value=1.08
compound=CCCCC[C@H](CC(=O)O)C(=O)O result_value=0.996
compound=Cc1cc(-n2c(=O)[nH]c(=O)n(C)c2=O)ccc1Oc1ccc(SC(F)(F)F)cc1 result_value=0.946
compound=CCCCN(CCCC)CCCOC(=O)c1ccc(N)cc1 result_value=0.877
compound="C[C@]12CCC3c4ccc(OC(=O)c5ccccc5)cc4CCC3C1CCC2=O (stereo partly specified)" result_value=1.05
compound=N[C@H](Cc1ccccc1)C(=O)O result_value=1.03

// moving on: another record for cell viability
query: State its cell viability for this compound: Nc1ccc(S(=O)(=O)Nc2ncccn2)cc1
result: 0.92
